# System: Zymoseptoria tritici (SEPTTR-184)
# protocol.summary: Cyp51 dsRNA tile (fragment) foliar application bioassay (Example 6)
# Format: in vivo
# experimental.parameters: 1 day protectant; rate 3.125 ppm; average of 2 trials
# Description: The 200 ppm concentration for each treatment was prepared by adding the calculated volume of the corresponding dsRNA solution in TE buffer. […] A non-target dsRNA control (YFP), a TE/phosphate buffer control, disease pressure control, and clean plant control were included. These plants were inoculated with an aqueous spore suspension of Zymoseptoria tritici either prior to or after fungicidal treatments. […]
Overview of reported Disease Control (%) SEPTTR-184 1DP across a group of molecules:
# unit: % | format: bare number

Illustrative cases are given below, each with its answer.
[
  {
    "molecule": "MgCyp51-T7: dsRNA tile of Zymoseptoria tritici Cyp51, 111 bp, location 1490-1600 (nucleic acid, listed as Zymoseptoria tritici, long dsRNA tile, purified, chemistry not given here) CGACGATGGTTCGCGATTTCAAGTTTTACAATGTGGATGGCAGCGACAACGTGGTGGGTACGGATTACAGCAGTTTGTTCAGCCGGCCGCTGTCGCCGGCAGTAGTAAAGT",
    "unit.string": "%",
    "endpoint.value": 50
  },
  {
    "molecule": "MgCyp51-T2: dsRNA tile of Zymoseptoria tritici Cyp51, 165 bp, location 48-212 (nucleic acid, listed as Zymoseptoria tritici) CCAGACCAGCCTCTGGAAACTTGTCGGACTTGGATTCCTCGCCTTCAGCACGCTCGCCATCCTCCTCAATGTCCTCTCACAACTTCTCTTCCGTGGCAAGTTGTCCGATCCGCCACTCGTATTCCACTGGGTGCCCTTCATCGGAAGCACCATCACATACGGCAT",
    "unit.string": "%",
    "endpoint.value": 53
  },
  {
    "molecule": "MgCyp51-T3: dsRNA tile of Zymoseptoria tritici Cyp51, 230 bp, location 450-679 (nucleic acid, listed as Zymoseptoria tritici) CGTCAAGTACGGCCTCACAACCTCTGCCCTCCAGTCCTACGTGACCTTGATCGCCGCCGAGACCCGCCAGTTCTTCGACCGCAACAACCCTCATAAGAAGTTCGCATCGACCAGCGGCACGATCGATCTCCCACCAGCCCTCGCCGAACTTACGATCTATACTGCCAGCCGATCATTGCAAGGAAAGGAAGTCCGCGAGGGCTTCGACTCGTCTTTCGCGGACCTCTACC",
    "unit.string": "%",
    "endpoint.value": 64
  },
  {
    "molecule": "MgCyp51-T11: dsRNA tile of Zymoseptoria tritici Cyp51, 172 bp, location 775-946 (nucleic acid, listed as Zymoseptoria tritici) TCCGAGACATACATGTCGATCATTCAGAAGAGACGAGAGTCCAAAACGGGCGAACATGAGGAAGACATGATCCACAACTTGATGCAGTGCAAATACAAGGACGGCAATGCCATTCCCGACAAGGAGATTGCTCATATGATGATTGCGCTGCTCATGGCCGGCCAGCACTCTT",
    "unit.string": "%",
    "endpoint.value": 63
  }
]

Give the reported Disease Control (%) SEPTTR-184 1DP for this molecule. MgCyp51-T13: dsRNA tile of Zymoseptoria tritici Cyp51, 119 bp, location 1517-1635 (nucleic acid, listed as Zymoseptoria tritici, long dsRNA tile, purified, chemistry not given here) ACAATGTGGATGGCAGCGACAACGTGGTGGGTACGGATTACAGCAGTTTGTTCAGCCGGCCGCTGTCGCCGGCAGTAGTAAAGTGGGAGAGGAGGGAGGAGAAGGAGGAGAAGAACTGA
58

Give the reported Disease Control (%) SEPTTR-184 1DP for this molecule. MgCyp51-T9: dsRNA tile of Zymoseptoria tritici Cyp51, 172 bp, location 1-172 (nucleic acid, listed as Zymoseptoria tritici, double-stranded RNA) ATGGGTCTCCTCCAGGAAGTCCTCGCGCAGTTCGACGCGCAATTCGGCCAGACCAGCCTCTGGAAACTTGTCGGACTTGGATTCCTCGCCTTCAGCACGCTCGCCATCCTCCTCAATGTCCTCTCACAACTTCTCTTCCGTGGCAAGTTGTCCGATCCGCCACTCGTATTCC
53
